// provenance: patent US20210371508A1

# TARGET ENTITY: T1, recombinant human NMES1 protein (Normal Mucosa of Esophagus Specific 1) (human, UniProt Q9C002 1-83, limits assumed)
# T1 construct: also called rhNMES1; recombinant NMES1 protein
# T1 sequence (Q9C002 whole entry, form in doubt): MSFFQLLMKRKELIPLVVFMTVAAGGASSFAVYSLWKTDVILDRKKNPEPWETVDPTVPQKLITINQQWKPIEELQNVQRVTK
# ASSAY PROCEDURE: BLI (Octet), antibody on protein A biosensors, recombinant NMES1 0-900 nM, 1:1 fit
OUTCOME MEASURE: koff (s⁻¹)
Quick note: give the figure in s⁻¹, leave out the unit.

BINDER: NMES-6 anti-NMES1 monoclonal antibody (antibody, IgG1, V domains shown, also called NM-6; NMES1-6) VH: QVQLVQSGAEVKKPGASVKVSCKASGYTFTSYGISWVRQAPGQGLEWMGWISAYNGNTNYAQKLQGRVTMTTDTSTSTAYMELRSLRSDDTAVYYCARAVGQLAFDYWGQGTLVTVSS VL: QSALNQPPSASGSPGQSVTISCTGTSSDVGGYNYVSWYQQHPGKAPKLMIYEVSKRPSGVPDRFSGSKSGNTASLTVSGLQAEDEADYYCSSYAGSNNLVFGGGTKVTVL
UNIT TAG: s⁻¹
OBSERVED RESULT: 0.00441

Exam item: Which koff reading was recorded for the binder NMES-3 anti-NMES1 monoclonal antibody (antibody, IgG1, V domains shown, also called NM-3; NMES1-3) VH: EVQLLQSGGGVVRPGGSLRLSCAASGFTFDDYGMSWVRQAPGKGLEWVSGINWNGGSTGYADSVKGRFTISRDNAKNSLYLQMNSLRAEDTALYYCARASMVRGVYAFDIWGQGTMVIVSS VL: DVQMTQSPSSLSASIGDRVTITCRASQSIGSYLNWYQQRPGKAPKLLIYSASSLQSGVPSRFSGSGSRSDFTLTIASLQPEDFATYYCQQSYSGPYTFGQGTKVDIK ?
Marked response: 0.00301
